- assay name: chemical genetic growth profiling, strain panel (AID 1159580);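 also: tested at 20 µM; growth read once vehicle control cultures reached saturation at 30 °C; 1 = growth at the plate median or of vehicle wells; lower values mean less growth of the strain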
- measurement setup: S. cerevisiae deletion strains, growth OD, locus YIL066C, strain RNR3
Screen size: about 5,500 compounds; about 2,000 (36%) were called active. Another 18% or so got no clear call; they are omitted. Rule as the data show it: active = normalized growth mostly below about 0.91 (no sharp cut-off); inconclusive = no clear call, values can overlap the other calls; inactive = mostly above about 0.92. The list shows a part of the results.
Outcomes: label 1 (active), label 0 (inactive)

{"columns": ["molecular string", "category label"],
 "data": [
  ["CNc1ccccc1C(=O)N1CCc2c([nH]c3ccccc23)C1=O", "label 0"],
  ["COc1ccc(C(=O)c2ccccc2)c(O)c1", "label 1"],
  ["Oc1ccc(O)cc1", "label 0"],
  ["NC/C=C/C(=O)O", "label 0"],
  ["COc1ccc(-c2coc3c(OC)c(OC)ccc3c2=O)cc1", "label 0"],
  ["COc1ccc(-c2coc3c(OC)c(OC)cc(OC)c3c2=O)cc1", "label 0"]
]}

Numbers sourced from PubChem BioAssay AID1159580.
